Source: the supplement of paper PMC10065799

- system: MERTK (UniProt Q12866)
- Sequence (Q12866 whole entry, looked up): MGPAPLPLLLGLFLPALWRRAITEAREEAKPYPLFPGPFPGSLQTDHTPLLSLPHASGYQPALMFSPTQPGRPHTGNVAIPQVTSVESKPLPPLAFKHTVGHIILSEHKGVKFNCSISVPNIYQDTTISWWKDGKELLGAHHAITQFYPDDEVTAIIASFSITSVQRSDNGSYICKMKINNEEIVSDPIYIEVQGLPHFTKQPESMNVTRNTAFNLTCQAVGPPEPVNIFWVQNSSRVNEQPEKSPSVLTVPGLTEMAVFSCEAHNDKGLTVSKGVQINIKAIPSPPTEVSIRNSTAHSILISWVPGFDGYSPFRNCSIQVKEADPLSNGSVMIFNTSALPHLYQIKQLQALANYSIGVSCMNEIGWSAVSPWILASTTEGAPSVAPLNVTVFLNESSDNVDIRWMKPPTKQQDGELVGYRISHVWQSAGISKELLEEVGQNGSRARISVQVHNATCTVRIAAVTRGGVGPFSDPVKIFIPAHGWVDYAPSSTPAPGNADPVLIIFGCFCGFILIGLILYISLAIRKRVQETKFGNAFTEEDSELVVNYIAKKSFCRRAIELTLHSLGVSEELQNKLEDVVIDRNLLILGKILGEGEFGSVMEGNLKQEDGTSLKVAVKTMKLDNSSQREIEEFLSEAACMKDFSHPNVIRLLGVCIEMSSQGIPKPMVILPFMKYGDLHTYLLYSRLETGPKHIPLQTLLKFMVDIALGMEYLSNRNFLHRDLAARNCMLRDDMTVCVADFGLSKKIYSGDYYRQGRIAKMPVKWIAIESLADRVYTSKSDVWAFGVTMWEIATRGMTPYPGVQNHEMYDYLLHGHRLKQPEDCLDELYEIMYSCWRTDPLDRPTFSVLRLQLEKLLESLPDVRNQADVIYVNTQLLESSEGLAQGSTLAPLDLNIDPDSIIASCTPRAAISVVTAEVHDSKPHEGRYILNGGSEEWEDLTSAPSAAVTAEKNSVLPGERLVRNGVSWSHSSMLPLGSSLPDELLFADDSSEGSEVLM
- protocol.summary: phosphorylation enrichment, bacterial display (enrichment ratio); higher = better substrate or ligand; peptides without Tyr show the background
Could you please report measured phosphorylation enrichment for the items listed next?
Reply: number alone, nothing else.

Exercise: If you can, please state the reported phosphorylation enrichment value of QEIATYRRLLE [KRT14_Y415] .
Key: 0.464

Exercise: If you can, please state the reported phosphorylation enrichment value of CGADSYEMEED [EGFR_Y316] .
Key: 0.549

Exercise: If you can, please state the reported phosphorylation enrichment value of DNEFAYLKAII [HNF4A_Y288_YF] .
Key: 0.334

Exercise: If you can, please state the reported phosphorylation enrichment value of QLYGPYLRIHA [BSCL2_Y213_A212P] .
Key: 0.538

Exercise: If you can, please state the reported phosphorylation enrichment value of PLLTDYSPQLQ [OTC_Y345_S340P] .
Key: 0.965

Exercise: If you can, please state the reported phosphorylation enrichment value of NVVQEYERVII [NPHS2_Y131_K126N] .
Key: 0.442

Exercise: If you can, please state the reported phosphorylation enrichment value of KGSEGYLAATY [NF1_Y2503] .
Key: 0.355

Exercise: If you can, please state the reported phosphorylation enrichment value of CTTIHYNYICN [TP53_Y234_M237I] .
Key: 0.518

Exercise: If you can, please state the reported phosphorylation enrichment value of AERKLYSGAQT [ZAP70_Y178] .
Key: 0.414

Exercise: If you can, please state the reported phosphorylation enrichment value of LVTRSYLLGNS [LMNA_Y646] .
Key: 0.794

Exercise: If you can, please state the reported phosphorylation enrichment value of RAQIRYAQEHD [NSD1_Y1987_R1984Q] .
Key: 0.912

Exercise: If you can, please state the reported phosphorylation enrichment value of EALDFCGEVRT [PTEN_Y155_Y155C] .
Key: 0.482

Exercise: If you can, please state the reported phosphorylation enrichment value of FPPDGYSRHFE [CTNND1_Y213_YF] .
Key: 0.372

Exercise: If you can, please state the reported phosphorylation enrichment value of FQEKGYNKEPR [CHRND_Y38_L42P] .
Key: 0.644

Exercise: If you can, please state the reported phosphorylation enrichment value of RGVTRYIFNRE [HLA-DQB1_Y62_Y58G_YF] .
Key: 1.59

Exercise: If you can, please state the reported phosphorylation enrichment value of IRRQGYSHRIL [MYO3B_Y993] .
Key: 0.464

Exercise: If you can, please state the reported phosphorylation enrichment value of NPQKPYFIRLY [WAS_Y83_S82P] .
Key: 0.344

* * *

- Test system: c-Abl (mouse)
- protocol.summary: phosphorylation enrichment, bacterial display (enrichment ratio); higher = better substrate or ligand; peptides without Tyr show the background
Could you please report measured phosphorylation enrichment for the items listed next?

Exercise: If you can, please state the reported phosphorylation enrichment value of PFWKLYESVKK [MKI67_Y241] .
Key: 1.07

Exercise: If you can, please state the reported phosphorylation enrichment value of FSLIHYASIVD [MYH7_Y582_G584S] .
Key: 0.847

Exercise: If you can, please state the reported phosphorylation enrichment value of FQGRRYDCDCD [CRYGS_Y21] .
Key: 0.647

Exercise: If you can, please state the reported phosphorylation enrichment value of KALSLYTKLMN [STAM_Y371_E366K] .
Key: 0.605

Exercise: If you can, please state the reported phosphorylation enrichment value of PVQAAYPKVVA [HBB_Y131_Q132P] .
Key: 0.501

Exercise: If you can, please state the reported phosphorylation enrichment value of CTTILYNFMCN [TP53_Y234_H233L_YF] .
Key: 0.7

Exercise: If you can, please state the reported phosphorylation enrichment value of MTRDIYETDFF [INSR_Y1185_YF] .
Key: 0.909

Exercise: If you can, please state the reported phosphorylation enrichment value of GGQSVYHVHLH [HINT1_Y109] .
Key: 0.581

Exercise: If you can, please state the reported phosphorylation enrichment value of SKEPYYVHCIK [MYO1D_Y586_R588H] .
Key: 0.615

Exercise: If you can, please state the reported phosphorylation enrichment value of PLGVLYKVKVY [PTS_Y128_V124L] .
Key: 0.876

Exercise: If you can, please state the reported phosphorylation enrichment value of GTSLIYWTLFT [G6PC3_Y214] .
Key: 11.2

Exercise: If you can, please state the reported phosphorylation enrichment value of GVRFIYTIDGS [DCX_Y105_YF] .
Key: 0.924

Exercise: If you can, please state the reported phosphorylation enrichment value of MTEEQYIKMNR [ARFGEF2_Y797_K794E] .
Key: 0.612

Exercise: If you can, please state the reported phosphorylation enrichment value of FDKEFYSVHNK [MET_Y1235_YF] .
Key: 0.959

Exercise: If you can, please state the reported phosphorylation enrichment value of LICRRYLVMQR [IL3RA_Y328_V323L] .
Key: 1.22

Exercise: If you can, please state the reported phosphorylation enrichment value of CERFSYYGMKA [SLC15A2_Y60] .
Key: 0.737

* * *

Could you please report measured phosphorylation enrichment for the items listed next?
- system: MERTK (UniProt Q12866)
- protocol.summary: phosphorylation enrichment, bacterial display (enrichment ratio); higher = better substrate or ligand; peptides without Tyr show the background
Reply: number alone, nothing else.

Exercise: If you can, please state the reported phosphorylation enrichment value of HHTNEYEYDEL [TGM1_Y134_D132N] .
Key: 0.594

Exercise: If you can, please state the reported phosphorylation enrichment value of YQLENCCNGGG [INS_Y108_Y108C] .
Key: 0.601

Exercise: If you can, please state the reported phosphorylation enrichment value of FGSRLYKFAFK [FANCD2_Y458_L456R_YF] .
Key: 0.406

Exercise: If you can, please state the reported phosphorylation enrichment value of EAIAKYDLKAT [GRB2_Y7_F9L] .
Key: 0.412

* * *

- system: Grb2 SH2 (UniProt P62993)
- Sequence (P62993 whole entry, looked up): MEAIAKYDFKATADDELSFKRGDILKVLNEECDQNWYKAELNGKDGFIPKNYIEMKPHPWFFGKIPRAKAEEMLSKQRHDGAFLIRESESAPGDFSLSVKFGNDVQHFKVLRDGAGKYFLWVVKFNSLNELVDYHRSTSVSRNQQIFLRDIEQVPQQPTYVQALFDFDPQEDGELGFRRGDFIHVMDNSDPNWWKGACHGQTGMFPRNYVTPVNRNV
- protocol.summary: SH2 binding enrichment of the phosphorylated peptide, bacterial display (enrichment ratio); higher = better substrate or ligand; peptides without Tyr show the background
Could you please report measured SH2 binding enrichment for the items listed next?
Reply: number alone, nothing else.

Exercise: If you can, please state the reported SH2 binding enrichment value of PRQRRYVYYYS [PTEN_Y174_S170R] .
Key: 0.909

Exercise: If you can, please state the reported SH2 binding enrichment value of LPKEQYLFTKE [AFG3L2_Y614_YF] .
Key: 0.911

Exercise: If you can, please state the reported SH2 binding enrichment value of ENGPYYTSYPP [GDAP2_Y488] .
Key: 0.761

Exercise: If you can, please state the reported SH2 binding enrichment value of GESQGYDIMEA [MSH2_Y863_P868A] .
Key: 0.778

Exercise: If you can, please state the reported SH2 binding enrichment value of NDLMEYAKQHG [ASS1_Y163] .
Key: 0.724

Exercise: If you can, please state the reported SH2 binding enrichment value of WYQTKYEELQV [KRT6B_Y360_I365V] .
Key: 0.832

Exercise: If you can, please state the reported SH2 binding enrichment value of NQILPYIEELV [PPP2R1B_Y341_K343E] .
Key: 0.979

Exercise: If you can, please state the reported SH2 binding enrichment value of IVKAFYVHARA [AIPL1_Y268_R270H_YF] .
Key: 1.36

Exercise: If you can, please state the reported SH2 binding enrichment value of TEAGNYKLCFD [TMED1_Y103_D102N] .
Key: 0.924

Exercise: If you can, please state the reported SH2 binding enrichment value of GSERDYTYEEL [EIF2S2_Y174] .
Key: 0.969

Exercise: If you can, please state the reported SH2 binding enrichment value of ARLEYYENEKK [IRS1_Y47] .
Key: 1.34

Exercise: If you can, please state the reported SH2 binding enrichment value of DNEFAYLKAII [HNF4A_Y288_YF] .
Key: 0.775

* * *

- system: Hck (UniProt P08631)
- Sequence (P08631 whole entry, looked up): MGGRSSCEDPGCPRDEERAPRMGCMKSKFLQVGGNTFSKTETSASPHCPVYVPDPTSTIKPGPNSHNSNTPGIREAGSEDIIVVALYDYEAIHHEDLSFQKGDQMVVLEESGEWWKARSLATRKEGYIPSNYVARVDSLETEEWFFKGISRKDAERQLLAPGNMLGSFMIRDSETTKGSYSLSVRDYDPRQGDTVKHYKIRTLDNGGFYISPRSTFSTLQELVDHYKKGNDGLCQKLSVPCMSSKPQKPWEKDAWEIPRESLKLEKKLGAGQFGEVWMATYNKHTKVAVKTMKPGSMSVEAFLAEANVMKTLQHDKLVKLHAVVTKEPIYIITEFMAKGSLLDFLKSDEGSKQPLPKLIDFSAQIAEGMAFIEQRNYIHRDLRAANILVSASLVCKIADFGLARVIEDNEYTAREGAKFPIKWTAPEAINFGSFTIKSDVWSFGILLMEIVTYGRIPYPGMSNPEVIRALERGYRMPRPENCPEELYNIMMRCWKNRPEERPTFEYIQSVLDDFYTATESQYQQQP
- protocol.summary: phosphorylation enrichment, bacterial display (enrichment ratio); higher = better substrate or ligand; peptides without Tyr show the background
quantity.name: phosphorylation enrichment
Reply: number alone, nothing else.

Exercise: If you can, please state the reported phosphorylation enrichment value of SVTCTYSPARN [TP53_Y126_L130R] .
Key: 0.56

Exercise: If you can, please state the reported phosphorylation enrichment value of HNVPIYEGFGL [ACTA1_Y168_A172G_YF] .
Key: 13.5

Exercise: If you can, please state the reported phosphorylation enrichment value of SASRSYSRSRS [SRRM4_Y549] .
Key: 0.503

Exercise: If you can, please state the reported phosphorylation enrichment value of EWLRRYLENGK [HLA-A_Y195] .
Key: 0.387

Exercise: If you can, please state the reported phosphorylation enrichment value of LDAFIYDAAVL [GRIN2A_Y730] .
Key: 7.32

Exercise: If you can, please state the reported phosphorylation enrichment value of AKKKMYSRKTK [AGXT_Y231] .
Key: 0.496

Exercise: If you can, please state the reported phosphorylation enrichment value of TIQRMYGCDVG [HLA-A_Y123_I121R] .
Key: 0.45

Exercise: If you can, please state the reported phosphorylation enrichment value of NYNPNYCFAGK [ALK_Y1096_D1091N] .
Key: 0.433

Exercise: If you can, please state the reported phosphorylation enrichment value of EQYELHCEMGS [CBL_Y371_Y371H] .
Key: 0.498

Exercise: If you can, please state the reported phosphorylation enrichment value of CTTIHYMFMCN [TP53_Y234_N235M_YF] .
Key: 0.552

Exercise: If you can, please state the reported phosphorylation enrichment value of KVGNGYISAAE [CALM2_Y100_D96V] .
Key: 0.393

Exercise: If you can, please state the reported phosphorylation enrichment value of QPSALYEDRYL [ASS1_Y83_S79P] .
Key: 3.92

Exercise: If you can, please state the reported phosphorylation enrichment value of EIVFVYVKKRS [DNAI2_Y7_YF] .
Key: 0.456

Exercise: If you can, please state the reported phosphorylation enrichment value of KGIDRYNPENL [EIF3K_Y21] .
Key: 0.384

Exercise: If you can, please state the reported phosphorylation enrichment value of KLQQWYREHRS [GPI_Y17] .
Key: 0.44

Exercise: If you can, please state the reported phosphorylation enrichment value of PGLKGYPGLSG [COL4A2_Y306_R304K] .
Key: 0.434

Exercise: If you can, please state the reported phosphorylation enrichment value of RGDCMYASLLG [AR_Y269_P271S] .
Key: 7.26

Exercise: If you can, please state the reported phosphorylation enrichment value of YGMQLYQKYMH [GRB14_Y347_N349K] .
Key: 2.08

Exercise: If you can, please state the reported phosphorylation enrichment value of GGQSVYHVHLH [HINT1_Y109] .
Key: 0.686

Exercise: If you can, please state the reported phosphorylation enrichment value of STILLYHIMAW [GPR143_Y157] .
Key: 1.44

Exercise: If you can, please state the reported phosphorylation enrichment value of WFQTKYEELQV [KRT6B_Y360_I365V_YF] .
Key: 0.442

Exercise: If you can, please state the reported phosphorylation enrichment value of HFVDEYDRTIE [KRAS_Y32_P34R] .
Key: 0.701

Exercise: If you can, please state the reported phosphorylation enrichment value of RKPDIYERLAS [MCM4_Y459] .
Key: 4.52

Exercise: If you can, please state the reported phosphorylation enrichment value of GHLFAYDWISI [BEST1_Y227_YF] .
Key: 1.4

Exercise: If you can, please state the reported phosphorylation enrichment value of VQVAYYTMMMN [SPATA17_Y84] .
Key: 1.65

Exercise: If you can, please state the reported phosphorylation enrichment value of NAPNSYGRRLI [CDKN2A_Y44_P48L] .
Key: 0.504

Exercise: If you can, please state the reported phosphorylation enrichment value of DEDYLYREELA [POR_Y575] .
Key: 0.642

Exercise: If you can, please state the reported phosphorylation enrichment value of EEEPVYKAEPE [HCLS1_Y360_E361K] .
Key: 0.595

Exercise: If you can, please state the reported phosphorylation enrichment value of NHFKIHNLCAE [PTEN_Y68_Y68H_YF] .
Key: 0.394

Exercise: If you can, please state the reported phosphorylation enrichment value of KALSLYTKLMN [STAM_Y371_E366K] .
Key: 0.537

Exercise: If you can, please state the reported phosphorylation enrichment value of ERSMSYSDESR [SMG1_Y143] .
Key: 0.456

Exercise: If you can, please state the reported phosphorylation enrichment value of TNLVPYPRIHF [TUBA1A_Y262] .
Key: 0.369

Exercise: If you can, please state the reported phosphorylation enrichment value of GAAMLYFPSVS [GPR143_Y177_YF] .
Key: 0.512

Exercise: If you can, please state the reported phosphorylation enrichment value of ATPKGYELDAS [OTC_Y223_P225L] .
Key: 0.442

Exercise: If you can, please state the reported phosphorylation enrichment value of ESLRRYLENGK [HLA-B_Y195_W191S] .
Key: 0.461

Exercise: If you can, please state the reported phosphorylation enrichment value of ESMNTYLQTSP [NAT1_Y208] .
Key: 0.655

Exercise: If you can, please state the reported phosphorylation enrichment value of CGADSYEMEED [EGFR_Y316] .
Key: 0.705

Exercise: If you can, please state the reported phosphorylation enrichment value of SGASGYSATST [CERT1_Y143] .
Key: 0.478

Exercise: If you can, please state the reported phosphorylation enrichment value of TVHPGYGFLSE [PCCA_Y143_A138T] .
Key: 0.488

Exercise: If you can, please state the reported phosphorylation enrichment value of SISFDYCRVPM [BST2_Y8_T4I_YF] .
Key: 0.546

Exercise: If you can, please state the reported phosphorylation enrichment value of IEPGIYIPEDD [XPNPEP3_Y455] .
Key: 0.592
